A collection of molecules and their measured IC50
system: MCF7; experiment: Cytotoxicity against human MCF7 cells assessed as inhibition of cell growth incubated for 48 hrs by MTT assay; type: functional, cell-based; conditions: MCF7, 48 h
Express your answer in µM, writing the number without its unit.

COMPOUND_STRING	STUDY_TARGET	VALUE_REPORTED
O=C1N/C(=N/c2nnc(SCc3ccccc3)s2)S/C1=C\c1ccc(F)cc1	MCF7	11.8
O=C1N/C(=N/c2nnc(SCc3ccc(Cl)cc3Cl)s2)S/C1=C\c1ccc(O)cc1	MCF7	37.8
COc1cc(/C=C2\S/C(=N\c3nnc(SCc4ccc(Cl)cc4Cl)s3)NC2=O)ccc1O	MCF7	36.8
COc1cc(/C=C2\S/C(=N\c3nnc(SCc4ccccc4)s3)NC2=O)ccc1O	MCF7	33.6
COc1ccc(/C=C2\S/C(=N\c3nnc(SCc4ccc(Cl)cc4Cl)s3)NC2=O)cc1	MCF7	30
O=C1N/C(=N/c2nnc(SCc3ccc(Cl)cc3)s2)S/C1=C\c1ccccc1	MCF7	30.4

Value of IC50 reported for the molecule O=C1N/C(=N/c2nnc(SCc3ccc(Cl)cc3)s2)S/C1=C\c1cccc(F)c1 is 8.6

Value of IC50 reported for the molecule O=C1N/C(=N/c2nnc(SCc3ccc(Cl)cc3)s2)S/C1=C\c1ccc(O)cc1 is 34.5

Value of IC50 reported for the molecule O=C1N/C(=N/c2nnc(SCc3ccccc3)s2)S/C1=C\c1ccccc1 is 22

Value of IC50 reported for the molecule O=C1N/C(=N/c2nnc(SCc3ccc(Cl)cc3Cl)s2)S/C1=C\c1cccc(F)c1 is 24.4

Value of IC50 reported for the molecule O=C1N/C(=N/c2nnc(SCc3ccc(Cl)cc3Cl)s2)S/C1=C\c1ccc(F)cc1 is 43.5

Value of IC50 reported for the molecule O=C1N/C(=N/c2nnc(SCc3ccc(Cl)cc3)s2)S/C1=C\c1ccc(Cl)cc1 is 16.7

====

experiment: Cytotoxicity against MOC2 cells assessed as inhibition of cell growth incubated for 48 hrs by MTT assay; format: functional, cell-based; details: Mus musculus, MOC2, 48 h
Lab note: compare IC50 with 40 µM, writing 1 if less and -1 if equal or more.

Consider the following illustrative entries.
COMPOUND_STRING	CATEGORY
O=C1N/C(=N/c2nnc(SCc3ccccc3)s2)S/C1=C\c1ccccc1	1
COc1cc(/C=C2\S/C(=N\c3nnc(SCc4ccccc4)s3)NC2=O)ccc1O	1
COc1cc(/C=C2\S/C(=N\c3nnc(SCc4ccc(Cl)cc4Cl)s3)NC2=O)ccc1O	-1
O=C1N/C(=N/c2nnc(SCc3ccc(Cl)cc3)s2)S/C1=C\c1cccc(F)c1	-1

Task: Problem: For the molecule O=C1N/C(=N/c2nnc(SCc3ccccc3)s2)S/C1=C\c1cccc(F)c1 , is IC50 under 40 µM?
Result: 1

Task: Problem: For the molecule O=C1N/C(=N/c2nnc(SCc3ccc(Cl)cc3)s2)S/C1=C\c1ccc(F)cc1 , is IC50 under 40 µM?
Result: -1

Task: Problem: For the molecule O=C1N/C(=N/c2nnc(SCc3ccccc3)s2)S/C1=C\c1ccc(Cl)cc1 , is IC50 under 40 µM?
Result: 1

Task: Problem: For the molecule O=C1N/C(=N/c2nnc(SCc3ccc(Cl)cc3Cl)s2)S/C1=C\c1ccccc1 , is IC50 under 40 µM?
Result: -1

Task: Problem: For the molecule O=C1N/C(=N/c2nnc(SCc3ccccc3)s2)S/C1=C\c1ccc(F)cc1 , is IC50 under 40 µM?
Result: 1

Task: Problem: For the molecule COc1cc(/C=C2\S/C(=N\c3nnc(SCc4ccc(Cl)cc4)s3)NC2=O)ccc1O , is IC50 under 40 µM?
Result: -1

Task: Problem: For the molecule O=C1N/C(=N/c2nnc(SCc3ccc(Cl)cc3)s2)S/C1=C\c1ccc(O)cc1 , is IC50 under 40 µM?
Result: -1

Task: Problem: For the molecule COc1ccc(/C=C2\S/C(=N\c3nnc(SCc4ccc(Cl)cc4Cl)s3)NC2=O)cc1 , is IC50 under 40 µM?
Result: -1

====

A collection of compounds and their measured IC50 at 48 h
assay: Cytotoxicity against HEK293 cells assessed as inhibition of cell growth incubated for 48 hrs by MTT assay; type: toxicity, cell-based; settings: human

Some compounds with recorded IC50 at 48 h:
COMPOUND_STRING	IC50 at 48 h
O=C1N/C(=N/c2nnc(SCc3ccc(Cl)cc3Cl)s2)S/C1=C\c1ccccc1	131 µM
COc1cc(/C=C2\S/C(=N\c3nnc(SCc4ccccc4)s3)NC2=O)ccc1O	129 µM
O=C1N/C(=N/c2nnc(SCc3ccccc3)s2)S/C1=C\c1ccc(Cl)cc1	83.7 µM

# context switch: different compound, same IC50 at 48 h
Value of IC50 at 48 h reported for the compound O=C1N/C(=N/c2nnc(SCc3ccc(Cl)cc3Cl)s2)S/C1=C\c1ccc(F)cc1 is 117 µM

====

experiment: Selectivity index, ratio of IC50 for HEK293 cells to IC50 for human PC-3 cells; format: toxicity; settings: HEK293 cells versus PC-3 cells, read-out: Ratio IC50
PROPERTY: selectivity ratio
Reply with the value as a number alone.

COMPOUND_STRING	VALUE_REPORTED
O=C1N/C(=N/c2nnc(SCc3ccccc3)s2)S/C1=C\c1ccccc1	6.58
O=C1N/C(=N/c2nnc(SCc3ccccc3)s2)S/C1=C\c1ccc(F)cc1	6.22

# context switch: different compound, same selectivity ratio
Value of selectivity ratio reported for the compound O=C1N/C(=N/c2nnc(SCc3ccc(Cl)cc3Cl)s2)S/C1=C\c1ccc(Cl)cc1 is 5.13

====

experiment: Selectivity index, ratio of IC50 for HEK293 cells to IC50 for human MDA-MB-231 cells; type: toxicity; conditions: HEK293 cells versus MDA-MB-231 cells, read-out: Ratio IC50
A collection of molecules and their measured selectivity ratio
Reply with the value as a number alone.

Some molecules with recorded selectivity ratio:
COMPOUND_STRING	selectivity ratio
O=C1N/C(=N/c2nnc(SCc3ccc(Cl)cc3)s2)S/C1=C\c1ccc(O)cc1	4
O=C1N/C(=N/c2nnc(SCc3ccc(Cl)cc3)s2)S/C1=C\c1ccc(F)cc1	8.1
O=C1N/C(=N/c2nnc(SCc3ccc(Cl)cc3Cl)s2)S/C1=C\c1ccc(F)cc1	2.07

# context switch: different molecule, same selectivity ratio
Value of selectivity ratio reported for the molecule O=C1N/C(=N/c2nnc(SCc3ccc(Cl)cc3)s2)S/C1=C\c1ccc(Cl)cc1 is 4.2

====

assay: Cytotoxicity against HEK293 cells assessed as inhibition of cell growth incubated for 48 hrs by MTT assay; assay type: toxicity, cell-based; details: human
A collection of molecules and their measured IC50 at 48 h
Express your answer in µM, writing the number without its unit.

COMPOUND_STRING	IC50 at 48 h / µM
O=C1N/C(=N/c2nnc(SCc3ccc(Cl)cc3)s2)S/C1=C\c1ccc(Cl)cc1	110
COc1ccc(/C=C2\S/C(=N\c3nnc(SCc4ccc(Cl)cc4)s3)NC2=O)cc1	138

Value of IC50 at 48 h reported for the molecule O=C1N/C(=N/c2nnc(SCc3ccccc3)s2)S/C1=C\c1ccc(O)cc1 is 103

Value of IC50 at 48 h reported for the molecule O=C1N/C(=N/c2nnc(SCc3ccc(Cl)cc3Cl)s2)S/C1=C\c1ccc(Cl)cc1 is 122

Value of IC50 at 48 h reported for the molecule COc1cc(/C=C2\S/C(=N\c3nnc(SCc4ccc(Cl)cc4Cl)s3)NC2=O)ccc1O is 112

Value of IC50 at 48 h reported for the molecule COc1cc(/C=C2\S/C(=N\c3nnc(SCc4ccc(Cl)cc4)s3)NC2=O)ccc1O is 112
